These entries and their values trace back to patent US6846934B2.

- ASSAY_OVERVIEW: Dispersability of diarylethene compounds in fluorinated diacrylate monomer (TFBDA) or THF
- Type: physicochemical
- Design: key: ◯ = clear solution at RT; Δ = medium solubility; X = insoluble, phase separation and unclear solution
- CONDITION_DESCRIPTION: 10 wt. % diarylethene in TFBDA, room temperature
RECORDED_METRIC: Dispersability

A selection of reference data follows.
Cc1sc2ccccc2c1C1=C(c2c(C)sc3cc(-c4cc(-c5ccccc5)on4)ccc23)C(F)(F)C(F)(F)C1(F)F | ◯
CC(=O)c1ccc2c(C3=C(c4c(C)sc5ccccc45)C(F)(F)C(F)(F)C3(F)F)c(C)sc2c1 | Δ
Cc1sc2ccccc2c1C1=C(c2c(C)sc3cc(-c4cc(CO)on4)ccc23)C(F)(F)C(F)(F)C1(F)F | X
Cc1sc2ccccc2c1C1=C(c2c(C)sc3ccccc23)C(F)(F)C(F)(F)C1(F)F | X

Turning now to a further record.
stdin: Query: Dispersability; subject: "Cc1sc2cc(-c3cc(-c4ccccc4)on3)ccc2c1C1=C(c2c(C)sc3cc(-c4cc(-c5ccccc5)on4)ccc23)C(F)(F)C(F)(F)C1(F)F"
stdout: ◯
